Taken from ChEMBL document CHEMBL1255486.

# assay_text: Cmax in healthy human at 200 mg/kg, po once daily for 7 days measured after 1 day of last dose
# Assay type: ADME, organism-based
# Parameters: dose 200 mg/kg, route oral
# condition_parameters: in vivo
observed_property: Cmax (ng/mL)
Give bare numbers, in ng/mL.

Looking up COC[C@@H](c1ccc(C(F)(F)F)cc1)N1CCN(C2(C)CCN(C(=O)c3c(C)ncnc3C)CC2)C[C@@H]1C , I see its Cmax listed as 838

* * *

# assay_text: Cmax in healthy human at 150 […], po once daily for 7 days
# Format: ADME, organism-based
# Parameters: dose 150 mg/kg, route oral
# condition_parameters: in vivo
observed_property: Cmax (ng/mL)
Answers are plain numbers, in ng/mL.

What the record says about COC[C@@H](c1ccc(C(F)(F)F)cc1)N1CCN(C2(C)CCN(C(=O)c3c(C)ncnc3C)CC2)C[C@@H]1C : Cmax is 649

* * *

# assay_text: Tmax in healthy human at 30 mg/kg, po after 10 days
# Format: ADME, organism-based
# Set-up: dose 30 mg/kg, route oral
# condition_parameters: in vivo
observed_property: Tmax (h)
Answers are plain numbers, in h.

Form: compound = COC[C@@H](c1ccc(C(F)(F)F)cc1)N1CCN(C2(C)CCN(C(=O)c3c(C)ncnc3C)CC2)C[C@@H]1C ; Tmax = 2

* * *

# assay_text: AUC (0 to 24 hrs) in healthy human at 30 mg/kg, po after 10 days
# Format: ADME, organism-based
# Set-up: time < 24 hr, dose 30 mg/kg, route oral
# condition_parameters: plasma
observed_property: AUC at 24 h (ng·h/mL)
Give bare numbers, in ng·h/mL.

The reported AUC at 24 h of the compound COC[C@@H](c1ccc(C(F)(F)F)cc1)N1CCN(C2(C)CCN(C(=O)c3c(C)ncnc3C)CC2)C[C@@H]1C was 6670

* * *

# assay_text: Cmax in healthy human at 300 mg/kg, po administered as single dose after 1 day
# Format: ADME, organism-based
# Parameters: dose 300 mg/kg, route oral
# condition_parameters: in vivo
observed_property: Cmax (ng/mL)
One number for each entry, in ng/mL.

Lookup result for COC[C@@H](c1ccc(C(F)(F)F)cc1)N1CCN(C2(C)CCN(C(=O)c3c(C)ncnc3C)CC2)C[C@@H]1C ; measured Cmax: 1130

* * *

# assay_text: Tmax in healthy human at 250 mg/kg, po once daily for 7 days measured after 1 day of last dose
# Assay type: ADME, organism-based
# Design: dose 250 mg/kg, route oral
# condition_parameters: in vivo
observed_property: Tmax
Put down the number, then write its unit next to it.

Kindly note the recorded Tmax for COC[C@@H](c1ccc(C(F)(F)F)cc1)N1CCN(C2(C)CCN(C(=O)c3c(C)ncnc3C)CC2)C[C@@H]1C , which is 1.5 h

* * *

# assay_text: Tmax in healthy human at 200 mg/kg, po administered as single dose after 1 day
# Assay type: ADME, organism-based
# Design: dose 200 mg/kg, route oral
# condition_parameters: in vivo
observed_property: Tmax

For this compound ( COC[C@@H](c1ccc(C(F)(F)F)cc1)N1CCN(C2(C)CCN(C(=O)c3c(C)ncnc3C)CC2)C[C@@H]1C [VICRIVIROC] ), measured Tmax is 2 h

* * *

# assay_text: Cmax in healthy human at 200 mg/kg, po once daily for 7 days
# Assay type: ADME, organism-based
# Parameters: dose 200 mg/kg, route oral
# condition_parameters: in vivo
observed_property: Cmax (ng/mL)
One number for each entry, in ng/mL.

The compound listed as COC[C@@H](c1ccc(C(F)(F)F)cc1)N1CCN(C2(C)CCN(C(=O)c3c(C)ncnc3C)CC2)C[C@@H]1C [VICRIVIROC] has a reported Cmax of 949
